assay: Human HepG2 cell viability assay in 384 well format
Assay type: toxicity, cell-based
Set-up: dose 125 nL, time 70.5 hour; concentration not given beside the values
conditions: HepG2 cells, read-out: Inhibition
Listed next: entries and their corresponding cytotoxicity at 70.5 h.
reported_endpoint: cytotoxicity at 70.5 h (%)

- given_smiles: "O=C(NCc1ccc(-n2cncn2)nc1)c1cc(Cl)ccn1"
  reported_endpoint: "cytotoxicity at 70.5 h"
  unit_abbreviation: "%"
  val: 12.5
- given_smiles: "CC1CCN(C[C@H]2CN3CC[C@H]2C[C@@H]3CNC(=O)Nc2ccsc2)CC1"
  reported_endpoint: "cytotoxicity at 70.5 h"
  unit_abbreviation: "%"
  val: 10.5
- given_smiles: "Cc1cc2nc(SCC(=O)N3CCOCC3)n(C(C)C)c(=O)c2[nH]1"
  reported_endpoint: "cytotoxicity at 70.5 h"
  unit_abbreviation: "%"
  val: -5.42
- given_smiles: "CC(C)CC1(C(=O)NCCc2nncn2C2CC2)CCC1"
  reported_endpoint: "cytotoxicity at 70.5 h"
  unit_abbreviation: "%"
  val: -3.78
- given_smiles: "O=C(NCc1ccc(Cl)s1)NCc1nnc2n1CCCCC2"
  reported_endpoint: "cytotoxicity at 70.5 h"
  unit_abbreviation: "%"
  val: -14.9
- given_smiles: "Cn1cc(CN2CCn3cc(Cn4cccn4)nc3C2)cn1"
  reported_endpoint: "cytotoxicity at 70.5 h"
  unit_abbreviation: "%"
  val: 44.1
